Assay: yeast display, Sf9 membrane polyspecificity reagent, FACS + sequencing; frameworks hold sequencing errors
Readout: polyreactivity (PSR sort gate)

Take a look at these entries with their results.
{"columns": ["Sequence Content", "polyreactivity (PSR sort gate)"],
 "data": [
  ["QVQLVESGGGLVQAGGSLRLSCAASGLIFKYNAMGWYRHAPGKERELVAAISTSGGSTYYADSVKGRFTISRDNAKNTVYLQMNSLKPEDNAVYFCNAVAGRPFRYYYWGQGTQVTVSS", "high polyreactivity"],
  ["QVQLVESGGGLVQAGGSLRLSCAASGFIFRYYAMGWYRQAPGKERELVAAISRSGGSTYYADSVKGRFTISRDNAKNTVYLQMNSLKPEDTAVYYCNKDPRGRIPVPGTWIMDYWGQGTQVTVSS", "high polyreactivity"],
  ["QVQLVQTGGGLVQAGGSLRLSCAASGRTFRYYAMGLYRQAPGKEREFVATITYSSGSTYYADSVKGRFTISRDNAKNTVYLQMNSLKPEDTAVYYCNAEGYCNSYGYWGQGTQVTVSS", "low polyreactivity"],
  ["QVQLVESGGGLVQAGGSLRLSCAASGITFDGYAMGWYRQAPGKERELVAAISNTGDTTYYADSVKGRFTISRDNAKNTVYLQMNSLKPEDTAVYYCAGQRYYSYEYWGQGTQVTVSS", "high polyreactivity"],
  ["QVQLVESGGGLVQAGGSLRLSCAASGRSFLGYPMGWYRQAARKERELVAAISSSGTSTYYADSVKGRFTISRDNAQNTVYLQMNSLKPEETSVYYCAKYAYSYYPPAYDYWGQGTKVTVSS", "high polyreactivity"]
]}

So what's the measured polyreactivity (PSR sort gate) for this one? "QVQLVESGGGLVQAGGSLRLSCAASGSILGYYAMGWYRQAPGKERELVAGIDYSAGSTYYADSVKGRFTISRDNAKNTVYLQMNSLKPEDTAVYYCAADVDSYWGTYDYWGQGTQVTVSS"
low polyreactivity

So what's the measured polyreactivity (PSR sort gate) for this one? "QVQLVESGGGLVQAGGSLRLSCAASGSIFRAYVMGWYRQAPGTERELVAAISRGGSTNYADSVKGRFTISRDNAKNTVFLQMNSLKPEDTAVYYCNAGRGLREDDYWGQGTQVTVSS"
low polyreactivity

So what's the measured polyreactivity (PSR sort gate) for this one? "QVHLVESGGGLVQAGGSLRLSCAASGFTFYYYAMGWYRQAPGKERELVATISRSVGSTYYADSVKGRFTISRDNAKNTVYLQMNSLKPEDTAVYYCAVGGYLRSVSYIRLGNYYWGQGTQVSVSS"
high polyreactivity

So what's the measured polyreactivity (PSR sort gate) for this one? "QVQLVESGGGLVQAGGSLRLSCAASGRIFSYYTLGWYRQAPGKERELVAAIRISSGGTYYADSVKGRFTISRDNAKNTVYLQMNSLKPEDTAVYYCAARYYGFPSKYDYWGQGTQVTVSS"
high polyreactivity
